- tgt: human CD39 recombinant protein (Homo sapiens, UniProt P49961)
- Construct: made in house
- Sequence (P49961 whole entry): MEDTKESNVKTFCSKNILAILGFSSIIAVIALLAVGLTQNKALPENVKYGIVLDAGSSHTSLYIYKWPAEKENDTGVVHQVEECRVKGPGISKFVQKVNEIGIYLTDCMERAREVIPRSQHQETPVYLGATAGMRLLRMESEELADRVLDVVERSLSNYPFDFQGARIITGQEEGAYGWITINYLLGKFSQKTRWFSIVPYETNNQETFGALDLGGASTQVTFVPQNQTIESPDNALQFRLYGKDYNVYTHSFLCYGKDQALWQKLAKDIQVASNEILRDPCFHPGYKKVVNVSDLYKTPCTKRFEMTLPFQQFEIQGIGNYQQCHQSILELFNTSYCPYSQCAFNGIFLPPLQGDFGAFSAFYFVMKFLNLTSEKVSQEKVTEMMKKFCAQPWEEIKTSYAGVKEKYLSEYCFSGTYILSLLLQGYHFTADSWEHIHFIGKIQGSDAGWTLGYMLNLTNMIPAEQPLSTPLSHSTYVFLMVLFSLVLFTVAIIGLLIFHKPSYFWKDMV
- protocol_summary: Enzyme assay, CD39 (Malachite green kit)
- Format: biochemical
- condition_info: AMP added, incubation 30 minutes
measurement_type: IC50

Field: example entries. Status: answers known.
CN(Cc1cccc(F)c1)c1ncnc2c1ncn2[C@@H]1O[C@H](COC(c2ccccc2)(c2ccccc2)c2ccccc2)[C@@H](O)[C@H]1O : 1.1 to 5 µM
CN(Cc1cccc(F)c1)c1ncnc2c1ncn2[C@@H]1O[C@H](COCc2ccc3ccccc3c2Br)[C@@H](O)[C@H]1O : 1.1 to 5 µM
COc1ccc(C(OC[C@H]2O[C@@H](n3cnc4c(N(C)Cc5cccc(F)c5)ncnc43)[C@H](O)[C@@H]2O)(c2ccccc2)c2ccc(OC)cc2)cc1 : < 1 µM
CN(Cc1cccc(F)c1)c1ncnc2c1ncn2[C@@H]1O[C@H](COCc2ccc3ccccc3c2)[C@H]2OC(C)(C)O[C@H]21 : 5.1 to 15 µM
O[C@@H]1[C@H](O)[C@@H](COC(c2ccccc2)(c2ccccc2)c2ccccc2)O[C@H]1n1cnc2c(Cl)ncnc21 : 5.1 to 15 µM

Give IC50 for each of the items listed below.
1. CN(Cc1cccc(F)c1)c1ncnc2c1ncn2[C@@H]1O[C@H](COC(=S)Nc2ccccc2)[C@@H](O)[C@H]1O
2. COc1ccc(C(OC[C@H]2O[C@@H](n3cnc4c(Cl)ncnc43)[C@H](O)[C@@H]2O)(c2ccccc2)c2ccc(OC)cc2)cc1
3. CN(Cc1cccc(F)c1)c1ncnc2c1ncn2[C@@H]1O[C@H](COCc2ccc(-c3ccccc3)cc2)[C@@H](O)[C@H]1O
4. CN(Cc1cccc(F)c1)c1ncnc2c1ncn2[C@@H]1O[C@H](CO[Si](c2ccccc2)(c2ccccc2)C(C)(C)C)[C@@H](O)[C@H]1O

Ans:
≥ 30 µM
≥ 30 µM
1.1 to 5 µM
1.1 to 5 µM

----------
- tgt: human CD73 recombinant protein (Homo sapiens, UniProt P21589)
- Construct: made in house
- Sequence (P21589 27-549): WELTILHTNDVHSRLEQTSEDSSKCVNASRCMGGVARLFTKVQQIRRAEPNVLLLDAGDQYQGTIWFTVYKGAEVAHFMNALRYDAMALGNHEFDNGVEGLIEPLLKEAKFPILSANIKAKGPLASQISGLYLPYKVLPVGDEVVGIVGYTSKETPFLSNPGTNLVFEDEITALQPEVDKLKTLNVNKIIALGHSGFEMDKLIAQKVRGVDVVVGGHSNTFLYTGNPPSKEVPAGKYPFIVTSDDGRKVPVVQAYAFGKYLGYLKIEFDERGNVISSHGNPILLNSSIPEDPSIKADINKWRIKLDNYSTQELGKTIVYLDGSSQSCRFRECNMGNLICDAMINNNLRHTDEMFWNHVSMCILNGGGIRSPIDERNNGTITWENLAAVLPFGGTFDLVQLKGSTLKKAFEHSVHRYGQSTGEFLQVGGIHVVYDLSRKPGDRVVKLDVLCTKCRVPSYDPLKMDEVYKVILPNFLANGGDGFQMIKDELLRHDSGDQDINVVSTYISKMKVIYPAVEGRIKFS
- protocol_summary: Enzyme assay, CD73 (Malachite green kit)
- Assay type: biochemical
- condition_info: AMP added, incubation 30 minutes
measurement_type: IC50

Field: example entries. Status: answers known.
CN(Cc1cccc(F)c1)c1ncnc2c1ncn2[C@@H]1O[C@H](COC(=S)Nc2ccccc2)[C@H]2OC(C)(C)O[C@H]21 : 15.1 to 30 µM
CN(Cc1cccc(F)c1)c1ncnc2c1ncn2[C@@H]1O[C@H](COCc2ccc3ccccc3c2Br)[C@H]2OC(C)(C)O[C@H]21 : 1.1 to 5 µM
CN(Cc1cccc(F)c1)c1ncnc2c1ncn2[C@@H]1O[C@H](CO[Si](c2ccccc2)(c2ccccc2)C(C)(C)C)[C@@H](O)[C@H]1O : < 1 µM

Give IC50 for each of the items listed below.
1. COc1ccc(C(OC[C@H]2O[C@@H](n3cnc4c(Cl)ncnc43)[C@H](O)[C@@H]2O)(c2ccccc2)c2ccc(OC)cc2)cc1
2. CN(Cc1cccc(F)c1)c1ncnc2c1ncn2[C@@H]1O[C@H](COCc2ccc(S(F)(F)(F)(F)F)cc2)[C@@H](O)[C@H]1O
3. O[C@@H]1[C@H](O)[C@@H](COC(c2ccccc2)(c2ccccc2)c2ccccc2)O[C@H]1n1cnc2c(Cl)ncnc21
4. CN(Cc1cccc(F)c1)c1ncnc2c1ncn2[C@@H]1O[C@H](COCc2ccc3ccccc3c2Br)[C@@H](O)[C@H]1O

Ans:
1: 1.1 to 5 µM; 2: 1.1 to 5 µM; 3: < 1 µM; 4: 1.1 to 5 µM

Q: I am curious: what IC50 value has been reported for `CN(Cc1cccc(F)c1)c1ncnc2c1ncn2[C@@H]1O[C@H](COCc2ccc3ccccc3c2)[C@H]2OC(C)(C)O[C@H]21` ?
Ans: 1.1 to 5 µM
